molecular target: UniProt:Q15119; experiment: Inhibition of human recombinant PDHK2 co-complexed with porcine PDH using sodium pyruvate, coenzymeA and NAD as substrates preincubated with enzyme complex for 45 mins followed by substrates addition and further incubated for 90 mins in presence of ATP at Km concentration by spectrophotometric assay
pIC50: −log10 of the molar value.
OBSERVABLE: pIC50

Examples from the recorded data:
COMPOUND	pIC50
Cc1nc2[nH]c3c(C4CC4)cccc3c2cc1-c1nnc([C@@H](CC(=O)N[C@H](C)c2ccccc2)C(C)C)o1	7.77
Cc1nc(N2C[C@@H](c3ccc(C(=O)O)[nH]3)C[C@H]2CO)c2c(n1)[nH]c1c(C3CC3)cccc12	8.29
COC(=O)c1cc2c(nc1C)[nH]c1c(C3CC3)cccc12	6.68

P: Cc1nc(N2CCC[C@H]2CO)c2c(n1)[nH]c1c(C3CC3)cccc12
Q: Cc1nc2[nH]c3c(C4CC4)cccc3c2cc1-c1nnc(C(C)C(C)C)o1 (stereo not drawn)
## Input Between P and Q , whose measured pIC50 reads higher? # answer = label of selected item
## Output Q
(Q: 7.06, P: 6.45)

1: Cc1nc2[nH]c3c(C4CC4)cccc3c2cc1-c1nnc(CC(C)C)o1
2: Cc1nc(N2C[C@@](Cc3ccccc3)(C(N)=O)C[C@H]2CO)c2c(n1)[nH]c1c(C3CC3)cccc12
## Input Please indicate which item has the smaller measured pIC50: 1 versus 2 # answer = label of selected item
## Output 1
(1: 7.25, 2: 8.35)

A: Cc1nc2[nH]c3c(C4CC4)cccc3c2cc1-c1ccccc1
B: CCc1nnc(-c2cc3c(nc2C)[nH]c2c(C4CC4)cccc23)o1
C: Cc1nc(N2C[C@@H](c3ccc(C(N)=O)[nH]3)C[C@H]2CO)c2c(n1)[nH]c1c(C3CC3)cccc12
## Input // ascending sort on recorded pIC50 List the labels in the requested order.
## Output A, B, C

----------
target: [Pyruvate dehydrogenase (acetyl-transferring)] kinase isozyme 4, mitochondrial (Homo sapiens); assay: Inhibition of human recombinant PDHK4 co-complexed with porcine PDH using sodium pyruvate, coenzymeA and NAD as substrates preincubated with enzyme complex for 45 mins followed by substrates addition and further incubated for 90 mins in presence of ATP at Km concentration by spectrophotometric assay
Sequence (Q16654 whole entry): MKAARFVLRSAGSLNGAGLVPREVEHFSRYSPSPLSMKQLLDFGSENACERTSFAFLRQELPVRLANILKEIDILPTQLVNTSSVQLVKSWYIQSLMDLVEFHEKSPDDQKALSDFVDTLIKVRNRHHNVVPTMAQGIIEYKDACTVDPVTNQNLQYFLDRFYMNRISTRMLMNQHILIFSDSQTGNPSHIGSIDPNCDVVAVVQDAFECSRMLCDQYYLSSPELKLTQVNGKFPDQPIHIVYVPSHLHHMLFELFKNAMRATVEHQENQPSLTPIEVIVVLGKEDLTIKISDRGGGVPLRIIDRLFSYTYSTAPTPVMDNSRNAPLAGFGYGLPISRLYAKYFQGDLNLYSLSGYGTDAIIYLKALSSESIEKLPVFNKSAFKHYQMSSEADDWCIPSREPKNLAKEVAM
OBSERVABLE: IC50 (µM)

Examples from the recorded data:
COMPOUND	OBSERVABLE	UNIT_LABEL	VAL
Cc1nc2[nH]c3c(C4CC4)cccc3c2cc1-c1nnc(CC(C)C)o1	IC50	µM	0.462
CC[C@@H]1C[C@H](c2ccc(C(=O)O)[nH]2)CN1c1nc(C)nc2[nH]c3c(C4CC4)cccc3c12	IC50	µM	0.0406

a: Cc1cnc(Cl)nc1-c1ccc(N(Cc2ccccc2)C(=O)c2ccc(O)cc2O)cc1
b: Cc1nc(N2C[C@H](Cc3ccccc3)C[C@H]2CO)c2c(n1)[nH]c1c(C3CC3)cccc12
c: Cc1nc(N2C[C@@H](c3ccc(C(=O)O)[nH]3)C[C@H]2CO)c2c(n1)[nH]c1c(C3CC3)cccc12
d: Cc1nc(N2C[C@@H](c3ccc(C(N)=O)[nH]3)C[C@H]2CO)c2c(n1)[nH]c1c(C3CC3)cccc12
e: Cc1nc2[nH]c3c(C4CC4)cccc3c2cc1-c1nnc(C(CC(=O)NCc2ccccc2)C(C)C)o1 (configuration not stated)
## Input Order the 5 compounds from highest to lowest IC50. List the labels in the requested order.
## Output b, a, e, d, c

P: Cc1nc2[nH]c3c(C4CC4)cccc3c2cc1-c1nnc(C(C)C(C)C)o1 (configuration not stated)
Q: Cc1nc(N2C[C@@](Cc3ccccc3)(C(N)=O)C[C@H]2CO)c2c(n1)[nH]c1c(C3CC3)cccc12
## Input Between P and Q , whose measured IC50 reads higher? # answer = label of selected item
## Output P
(P: 0.494 µM, Q: 0.26 µM)

I: Cc1nc2[nH]c3c(C4CC4)cccc3c2cc1-c1ccccc1
II: Cc1nc(N2C[C@](CO)(Cc3ccccc3)C[C@H]2CO)c2c(n1)[nH]c1c(C3CC3)cccc12
## Input Between I and II , whose measured IC50 reads higher? # answer = label of selected item
## Output I
(I: 7.49 µM, II: 0.292 µM)

P: CCC1CCCN1c1nc(C)nc2[nH]c3c(C4CC4)cccc3c12 (configuration not stated)
Q: Cc1nc2[nH]c3c(C4CC4)cccc3c2cc1-c1nnc([C@@H](CC(=O)N[C@H](C)c2ccccc2)C(C)C)o1
## Input Between P and Q , whose measured IC50 reads higher? # answer = label of selected item
## Output P
(P: 8.46 µM, Q: 0.0615 µM)

P: Cc1nc(N2CCCC2)c2c(n1)[nH]c1c(C3CC3)cccc12
Q: CCc1nnc(-c2cc3c(nc2C)[nH]c2c(C4CC4)cccc23)o1
## Input Please indicate which item has the smaller measured IC50: P versus Q # answer = label of selected item
## Output Q
(Q: 2.12 µM, P: 10.3 µM)

I: Cc1nnc(-c2cc3c(nc2C)[nH]c2c(C4CC4)cccc23)o1
II: Cc1ccc2c(n1)[nH]c1c(C3CC3)cccc12
III: Cc1nc2[nH]c3c(C4CC4)cccc3c2cc1-c1ccccn1
IV: Cc1nc(N2C[C@H](c3ccccc3)C[C@H]2CO)c2c(n1)[nH]c1c(C3CC3)cccc12
## Input // ascending sort on recorded IC50 List the labels in the requested order.
## Output I, III, IV, II
(I: 1.51 µM, III: 2.98 µM, IV: 7.7 µM, II: 11.9 µM)

----------
biological target: [Pyruvate dehydrogenase (acetyl-transferring)] kinase isozyme 4, mitochondrial (Homo sapiens); assay: Inhibition of human recombinant PDHK4 co-complexed with porcine PDH using sodium pyruvate, coenzymeA and NAD as substrates preincubated with enzyme complex for 45 mins followed by substrates addition and further incubated for 90 mins in presence of ATP at Km concentration by spectrophotometric assay
pIC50: −log10 of the molar value.
OBSERVABLE: pIC50

COMPOUND	pIC50
Cc1nc(N2CCC[C@H]2CO)c2c(n1)[nH]c1c(C3CC3)cccc12	5.34

I: Cc1nc2[nH]c3c(C4CC4)cccc3c2cc1-c1nnc(C(C)C)o1
II: Cc1nc2[nH]c3c(C4CC4)cccc3c2cc1-c1nnc(C(NC(=O)CCc2ccccc2)C(C)C)o1 (stereo not given)
III: CCc1nnc(-c2cc3c(nc2C)[nH]c2c(C4CC4)cccc23)s1
IV: CCCc1nnc(-c2cc3c(nc2C)[nH]c2c(C4CC4)cccc23)o1
## Input Order the 4 compounds from highest to lowest pIC50. List the labels in the requested order.
## Output II, IV, I, III
(II: 7.62, IV: 6.53, I: 6.23, III: 5.18)

----------
target: Branched-chain alpha-ketoacid dehydrogenase kinase (Homo sapiens); assay: Inhibition of human recombinant BCKDK incubated for 60 mins in presence of ATP by ADP-Glo reagent based luminescent assay
OBSERVABLE: IC50

Examples from the recorded data:
MOLECULE	IC50
Cc1ncc2c(n1)[nH]c1c(C3CC3)cccc12	> 300 µM
Cc1nc2[nH]c3c(C4CC4)cccc3c2cc1-c1nnc(C(CC(=O)NCc2ccccc2)C(C)C)o1 (stereo not drawn)	> 100 µM

Please examine the following record next.
## Input Complete the entry with IC50 for Cc1nc2[nH]c3c(C4CC4)cccc3c2cc1-c1nnc(C(NC(=O)CCc2ccccc2)C(C)C)o1 (stereo not drawn)
## Output > 100 µM

----------
target: [Pyruvate dehydrogenase (acetyl-transferring)] kinase isozyme 1, mitochondrial (Homo sapiens, UniProt Q15118); assay: Inhibition of human recombinant PDHK1 co-complexed with porcine PDH using sodium pyruvate, coenzymeA and NAD as substrates preincubated with enzyme complex for 45 mins followed by substrates addition and further incubated for 90 mins by spectrophotometric assay
Sequence (Q15118 whole entry): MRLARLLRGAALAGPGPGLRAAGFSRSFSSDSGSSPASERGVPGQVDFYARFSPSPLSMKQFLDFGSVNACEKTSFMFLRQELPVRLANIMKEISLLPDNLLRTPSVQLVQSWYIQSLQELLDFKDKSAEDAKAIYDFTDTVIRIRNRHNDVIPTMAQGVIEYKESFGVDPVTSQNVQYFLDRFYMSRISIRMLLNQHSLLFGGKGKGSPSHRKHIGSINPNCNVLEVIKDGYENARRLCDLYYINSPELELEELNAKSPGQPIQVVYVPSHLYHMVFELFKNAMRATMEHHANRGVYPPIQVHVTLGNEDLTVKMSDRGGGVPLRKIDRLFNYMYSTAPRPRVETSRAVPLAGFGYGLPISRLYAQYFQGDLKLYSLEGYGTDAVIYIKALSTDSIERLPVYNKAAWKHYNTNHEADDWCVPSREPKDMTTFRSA
OBSERVABLE: pIC50
pIC50 is a log-scale quantity: -log10 of the concentration expressed in molar.

## Input Complete the entry with pIC50 for `Cc1ncc2c(n1)[nH]c1c(C3CC3)cccc12`
## Output 5.23

----------
target: [Pyruvate dehydrogenase (acetyl-transferring)] kinase isozyme 2, mitochondrial (Homo sapiens); assay: Inhibition of human recombinant PDHK2 co-complexed with porcine PDH using sodium pyruvate, coenzymeA and NAD as substrates preincubated with enzyme complex for 45 mins followed by substrates addition and further incubated for 90 mins in presence of ATP at Km concentration by spectrophotometric assay
OBSERVABLE: IC50 (nM)

Examples from the recorded data:
COMPOUND	IC50, nM
Cc1nc(N2C[C@H](c3ccccc3)C[C@H]2CO)c2c(n1)[nH]c1c(C3CC3)cccc12	1010
CCc1nnc(-c2cc3c(nc2C)[nH]c2c(C4CC4)cccc23)s1	1490
Cc1nc(N2CCCC2)c2c(n1)[nH]c1c(C3CC3)cccc12	2410
CCC1CCCN1c1nc(C)nc2[nH]c3c(C4CC4)cccc3c12 (stereo not drawn)	758
Cc1nc2[nH]c3c(C4CC4)cccc3c2cc1-c1nnc(C(C)C)o1	130
Cc1ncc2c(n1)[nH]c1c(C3CC3)cccc12	710
Cc1nc2[nH]c3c(C4CC4)cccc3c2cc1-c1nnc(C(NC(=O)CCc2ccccc2)C(C)C)o1 (stereo not drawn)	4.2
Cc1ccc2c(n1)[nH]c1c(C3CC3)cccc12	2030
Cc1nc(N2C[C@H](Cc3ccccc3)C[C@H]2CO)c2c(n1)[nH]c1c(C3CC3)cccc12	73
Cc1nc2[nH]c3c(C4CC4)cccc3c2cc1-c1ccccn1	1510

I: Cc1cnc(Cl)nc1-c1ccc(N(Cc2ccccc2)C(=O)c2ccc(O)cc2O)cc1
II: Cc1nc(N2C[C@](CO)(Cc3ccccc3)C[C@H]2CO)c2c(n1)[nH]c1c(C3CC3)cccc12
III: CCCc1nnc(-c2cc3c(nc2C)[nH]c2c(C4CC4)cccc23)o1
IV: CC[C@@H]1C[C@H](c2ccc(C(=O)O)[nH]2)CN1c1nc(C)nc2[nH]c3c(C4CC4)cccc3c12
## Input Order the 4 compounds from highest to lowest IC50. List the labels in the requested order.
## Output III, I, II, IV

1: Cc1nnc(-c2cc3c(nc2C)[nH]c2c(C4CC4)cccc23)o1
2: Cc1nc(N2CCC[C@@H]2CO)c2c(n1)[nH]c1c(C3CC3)cccc12
## Input Please indicate which item has the smaller measured IC50: 1 versus 2 # answer = label of selected item
## Output 1

1: Cc1nc2[nH]c3c(C4CC4)cccc3c2cc1-c1nnc(C(CC(=O)NCc2ccccc2)C(C)C)o1 (stereo not drawn)
2: CNC(=O)c1cc2c(nc1C)[nH]c1c(C3CC3)cccc12
## Input Please indicate which item has the smaller measured IC50: 1 versus 2 # answer = label of selected item
## Output 1
